Entries and their pIC50 values follow.
Target sequence: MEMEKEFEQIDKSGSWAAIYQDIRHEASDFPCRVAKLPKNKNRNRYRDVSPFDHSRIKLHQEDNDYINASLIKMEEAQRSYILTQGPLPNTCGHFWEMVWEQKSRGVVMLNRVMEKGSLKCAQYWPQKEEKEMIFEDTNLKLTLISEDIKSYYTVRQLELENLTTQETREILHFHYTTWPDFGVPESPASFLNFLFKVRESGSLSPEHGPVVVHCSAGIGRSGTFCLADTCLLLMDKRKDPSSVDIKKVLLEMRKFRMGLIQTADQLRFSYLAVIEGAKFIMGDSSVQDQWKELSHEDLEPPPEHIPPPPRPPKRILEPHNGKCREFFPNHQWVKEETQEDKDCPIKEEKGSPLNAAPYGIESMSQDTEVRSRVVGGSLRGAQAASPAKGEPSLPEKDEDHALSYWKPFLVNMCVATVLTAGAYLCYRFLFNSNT
To interpret pIC50, take it as minus log10 of a concentration measured in moles per litre.

See these solved cases before continuing.
{"columns": ["Structure notation", "Endpoint value"],
 "data": [
  ["O=C(O)c1ccc(C2Nc3cccc4cccc(c34)N2)nc1", 4.97],
  ["O=C(O)COc1ccc(C2Nc3cccc4cccc(c34)N2)cc1", 5.23],
  ["CCOC(=O)C(=O)Nc1ccc(C2Nc3cccc4cccc(c34)N2)cc1", 5.90]
]}

What does the data say about its pIC50? Entry: "O=C(O)CNC(=O)c1ccc(C2Nc3cccc4cccc(c34)N2)cc1" 4.56

Moving on to the next compound: "O=C(O)CCCNC(=O)c1ccc(C2Nc3cccc4cccc(c34)N2)nc1" 4.82

Moving on to the next compound: "O=C(O)CC(=O)Nc1ccc(C2Nc3cccc4cccc(c34)N2)cc1" 5.19
